Test system: IL-2 stimulated pSTAT5 in Tall-1 T cells (JAK3)
experimental_protocol: Cellular JAK3 potency assay: inhibition of IL-2 stimulated pSTAT5 in Tall-1 T cells
Type: cell-based
applied_conditions: IL-2 300 ng/ml, pSTAT5 AlphaLisa, Tall-1 human T cell line; read-out: Tall-1 (pIC50) (converted)
Exercise: for every item that follows, state its recorded IC50.

Hi there! I need IC50 for each item below, if you can.
1. CCc1cc(O)ccc1-c1cc(OCC2CN(C(=O)/C=C/CN(C)C)C2)c2cncn2c1
2. C=CC(=O)N1CC[C@H](Oc2cc(-c3ccc(O)cc3)cn3cncc23)C[C@@H]1C
3. C=CC(=O)N1CC[C@@H](Oc2cc(-c3ccc(O)cc3)cn3cncc23)C[C@H]1C
4. C=CC(=O)N1CC(COc2cc(-c3ccc(O)c(F)c3F)cn3cncc23)C1
5. C=CC(=O)N1CC[C@H](Oc2cc(-c3ccc(O)cc3)cn3cncc23)C1
6. C=CC(=O)N1[C@@H]2CC[C@H]1C[C@H](Oc1cc(-c3cc(F)c(O)cc3CC)cn3cncc13)C2
7. C=CC(=O)N1CC(CSc2cc(-c3ccc(O)cc3)cn3cncc23)C1

200 to 1000 nM
31.6 to 200 nM
≤ 31.6 nM
31.6 to 200 nM
200 to 1000 nM
≤ 31.6 nM
200 to 1000 nM

Request the reported IC50 associated with C=CC(=O)N1CC(COc2cc(-c3cc(F)c(O)c(F)c3)cn3cncc23)C1
200 to 1000 nM

Cited source: patent US10851102B2
